METHOD_NOTES: protein stability index of a GFP-peptide fusion (yeast GPS) (PSI 1-4); higher = more stable; sorted into four equal gates, so the index is relative within each strain
EXPERIMENTAL_PARAMETERS: doa10∆
MEASURED_PROPERTY: protein stability index

# MONOMER_SEQUENCE, MEASURED_PROPERTY, MEAS_VALUE
records = [
    ("LSAPLSKELRAQYGIKA [RPL26A]", "protein stability index", 2.91),
    ("DKTLRLWDVATGETYQR [ASC1]", "protein stability index", 3),
    ("PGPLPDTDSKPSSQSQN [YLR018C/POM34]", "protein stability index", 3.06),
    ("VKVLAATNRVDVLDPAL [RPT5]", "protein stability index", 3.08),
    ("SGLPTCDYYNTFLLNNK [RPN2]", "protein stability index", 2.94),
    ("DNMITGVTKGYKYKMRY [RPL9A]", "protein stability index", 3.07),
]
